- experimental.protocol: Cytotoxicity against in human MT4 cells after 5 days by XTT assay
- Type: cell-based
- experimental.parameters: time 5 day
readout.name: CC50 at 120 h (µM)
Give the value, in units of µM, as a plain number.

Please review the entries below; each comes with its answer.
[[record]]
molecule = "CC(C)OC(=O)[C@H](C)N[P@](=O)(CO[C@H](C)Cn1cnc2c(N)ncnc21)Oc1ccc(C[C@@H](NC(=O)OCc2ccccc2)C(=O)OC2CCCC2)cc1"
units_text = "µM"
value_measured = 20

[[record]]
molecule = "CC(C)CCOC(=O)[C@H](Cc1ccc(OP(=O)(CO[C@H](C)Cn2cnc3c(N)ncnc32)N[C@@H](C)C(=O)OC(C)C)cc1)NC(=O)OCc1ccccc1 (stereo partly specified)"
units_text = "µM"
value_measured = 8.4

[[record]]
molecule = "CCCCCCCCOC(=O)[C@H](Cc1ccc(OP(=O)(CO[C@H](C)Cn2cnc3c(N)ncnc32)N[C@@H](C)C(=O)OC(C)C)cc1)NC(=O)OCc1ccccc1 (stereo partly specified)"
units_text = "µM"
value_measured = 27

[[record]]
molecule = "CC(C)OC(=O)[C@H](C)N[P@](=O)(CO[C@H](C)Cn1cnc2c(N)ncnc21)Oc1ccc(C[C@H](NCCCc2ccccc2)C(=O)OC2CCCC2)cc1"
units_text = "µM"
value_measured = 6

[[record]]
molecule = "COC(=O)[C@H](Cc1ccc(O[P@@](=O)(CO[C@H](C)Cn2cnc3c(N)ncnc32)N[C@@H](C)C(=O)OC(C)C)cc1)N1CCCC1"
units_text = "µM"
value_measured = 27


The recorded CC50 at 120 h for CCCCCCOC(=O)[C@H](Cc1ccc(OP(=O)(CO[C@H](C)Cn2cnc3c(N)ncnc32)N[C@@H](C)C(=O)OC(C)C)cc1)NC(=O)OCc1ccccc1 (stereo partly specified) is 8.4

Cited source: ChEMBL document CHEMBL4840358
